- Tested on: Mycobacterium tuberculosis
- assay-procedure: Antitubercular activity against Mycobacterium tuberculosis mc2 6230 assessed as inhibition of bacterial growth incubated for 7 days
- Assay type: functional
- test-context: mc2 6230, 168 h, time 7 day
MIC reference

{"columns": ["molecule", "qualifier", "MIC (µM)"],
 "data": [
  ["Cc1c(-c2ccccc2Cl)c(=O)n(C23CC4CC(CC(C4)C2)C3)c2nc(NC(C)C)ncc12", "=", 256],
  ["Cc1c(-c2ccccc2Cl)c(=O)n(C23CC4CC(CC(C4)C2)C3)c2nc(N3CCC(C)CC3)ncc12", ">", 512],
  ["CCC(C)Nc1ncc2c(C)c(-c3ccccc3Cl)c(=O)n(C34CC5CC(CC(C5)C3)C4)c2n1 (stereo not drawn)", "=", 512],
  ["Cc1cc(Nc2ncc3c(C)c(-c4ccccc4Cl)c(=O)n(C45CC6CC(CC(C6)C4)C5)c3n2)ccc1N1CCN(CCO)CC1", "=", 32],
  ["Cc1c(-c2ccccc2Cl)c(=O)n(C23CC4CC(CC(C4)C2)C3)c2nc(N3CCC(O)CC3)ncc12", ">", 512],
  ["COCCNc1ncc2c(C)c(-c3ccccc3Cl)c(=O)n(C34CC5CC(CC(C5)C3)C4)c2n1", ">", 512],
  ["Cc1c(-c2ccccc2Cl)c(=O)n(C23CC4CC(CC(C4)C2)C3)c2nc(N3CCC(N4CCOCC4)CC3)ncc12", ">", 512],
  ["Cc1cc(Nc2ncc3c(C)c(-c4ccccc4)c(=O)n(C45CC6CC(CC(C6)C4)C5)c3n2)ccc1N1CCC(N(C)C)CC1", "=", 16]
]}

* * *

- System: Salmonella
- assay-procedure: Antibacterial activity against Salmonella at 10 uM incubated for 16 hrs by microtiter reader analysis
- Type: functional, organism-based
Active and inactive are the calls of the source. The rule behind the calls is not given here.
measured-quantity: Activity

{"columns": ["structure-as-smiles", "measured-quantity", "measurement"],
 "data": [
  ["Cc1cc(Nc2ncc3c(C)c(-c4ccccc4Cl)c(=O)n(C45CC6CC(CC(C6)C4)C5)c3n2)ccc1N1CCC(N(C)C)CC1", "Activity", "inactive"],
  ["Cc1c(-c2ccccc2Cl)c(=O)n(C23CC4CC(CC(C4)C2)C3)c2nc(Nc3ccc(N4CCN(C)CC4)c(OC(C)C)c3)ncc12", "Activity", "inactive"],
  ["CCOc1cc(Nc2ncc3c(C)c(-c4ccccc4Cl)c(=O)n(C45CC6CC(CC(C6)C4)C5)c3n2)ccc1N1CCN(C)CC1", "Activity", "inactive"],
  ["Cc1cc(Nc2ncc3c(C)c(-c4ccccc4Cl)c(=O)n(C45CC6CC(CC(C6)C4)C5)c3n2)ccc1N1CCN(C)CC1", "Activity", "inactive"]
]}

* * *

- System: Mycobacterium tuberculosis
- assay-procedure: Antitubercular activity against Mycobacterium tuberculosis mc2 6230 assessed as inhibition of bacterial growth incubated for 7 days
- Format: functional
- test-context: mc2 6230, 168 h, time 7 day
MIC reference

{"columns": ["compound", "unit-spec", "qualifier", "MIC"],
 "data": [
  ["Cc1c(-c2ccccc2Cl)c(=O)n(C23CC4CC(CC(C4)C2)C3)c2nc(N3CCC(N(C)C)CC3)ncc12", "µM", "=", 16],
  ["CCNc1ncc2c(C)c(-c3ccccc3Cl)c(=O)n(C34CC5CC(CC(C5)C3)C4)c2n1", "µM", "=", 256],
  ["Cc1c(-c2ccccc2Cl)c(=O)n(C23CC4CC(CC(C4)C2)C3)c2nc(Nc3ccc(N4CCN(C)CC4)cc3)ncc12", "µM", "=", 512],
  ["Cc1c(-c2ccccc2Cl)c(=O)n(C23CC4CC(CC(C4)C2)C3)c2nc(NC3CCCCC3)ncc12", "µM", "=", 512],
  ["Cc1c(-c2ccccc2Cl)c(=O)n(C23CC4CC(CC(C4)C2)C3)c2nc(N3CCN(C)CC3)ncc12", "µM", ">", 512],
  ["Cc1cc(Nc2ncc3c(C)c(-c4ccccc4C#N)c(=O)n(C45CC6CC(CC(C6)C4)C5)c3n2)ccc1N1CCC(N(C)C)CC1", "µM", "=", 16],
  ["COc1cc(Nc2ncc3c(C)c(-c4ccccc4Cl)c(=O)n(C45CC6CC(CC(C6)C4)C5)c3n2)ccc1N1CCN(C)CC1", "µM", "=", 8],
  ["Cc1cc(Nc2ncc3c(C)c(-c4ccccc4Cl)c(=O)n(C4CCCCC4)c3n2)ccc1N1CCC(N(C)C)CC1", "µM", "=", 32],
  ["Cc1c(-c2ccccc2Cl)c(=O)n(C23CC4CC(CC(C4)C2)C3)c2nc(Nc3ccc(N4CCN(C)CC4)c(OC(C)C)c3)ncc12", "µM", "=", 8],
  ["Cc1c(-c2ccccc2Cl)c(=O)n(C23CC4CC(CC(C4)C2)C3)c2nc(N3CCN(CCO)CC3)ncc12", "µM", "=", 64],
  ["Cc1c(-c2ccccc2Cl)c(=O)n(C23CC4CC(CC(C4)C2)C3)c2nc(NC3CCCC3)ncc12", "µM", "=", 265],
  ["Cc1c(-c2ccccc2Cl)c(=O)n(C23CC4CC(CC(C4)C2)C3)c2nc(NCCO)ncc12", "µM", ">", 512],
  ["CCOc1cc(Nc2ncc3c(C)c(-c4ccccc4Cl)c(=O)n(C45CC6CC(CC(C6)C4)C5)c3n2)ccc1N1CCN(C)CC1", "µM", "=", 8],
  ["Cc1cc(Nc2ncc3c(C)c(-c4ccccc4Cl)c(=O)n(C45CC6CC(CC(C6)C4)C5)c3n2)ccc1N1CCC(N(C)C)CC1", "µM", "=", 4],
  ["Cc1cc(Nc2ncc3c(C)c(-c4ccc(Cl)cc4)c(=O)n(C45CC6CC(CC(C6)C4)C5)c3n2)ccc1N1CCC(N(C)C)CC1", "µM", ">", 512],
  ["Cc1ccccc1-c1c(C)c2cnc(Nc3ccc(N4CCC(N(C)C)CC4)c(C)c3)nc2n(C23CC4CC(CC(C4)C2)C3)c1=O", "µM", "=", 8],
  ["COc1nc2ccc(Br)cc2cc1[C@@H](c1ccccc1)[C@@](O)(CCN(C)C)c1cccc2ccccc12 [BEDAQUILINE]", "µM", "=", 0.02],
  ["Cc1c(-c2ccccc2Cl)c(=O)n(C23CC4CC(CC(C4)C2)C3)c2nc(NC[C@H]3CCCO3)ncc12", "µM", ">", 512],
  ["Cc1cc(Nc2ncc3c(C)c(-c4ccccc4Cl)c(=O)n(C45CC6CC(CC(C6)C4)C5)c3n2)ccc1N1CCC(C)CC1", "µM", ">", 512],
  ["COc1ccccc1-c1c(C)c2cnc(Nc3ccc(N4CCC(N(C)C)CC4)c(C)c3)nc2n(C23CC4CC(CC(C4)C2)C3)c1=O", "µM", "=", 16],
  ["Cc1cc(Nc2ncc3c(C)c(-c4ccccc4Cl)c(=O)n(C45CC6CC(CC(C6)C4)C5)c3n2)ccc1N1CCN(C)CC1", "µM", "=", 8],
  ["Cc1cc(Nc2ncc3c(C)c(-c4ccccc4Cl)c(=O)n(C4CCCC4)c3n2)ccc1N1CCC(N(C)C)CC1", "µM", "=", 32],
  ["Cc1cc(Nc2ncc3c(C)c(-c4ccccc4F)c(=O)n(C45CC6CC(CC(C6)C4)C5)c3n2)ccc1N1CCC(N(C)C)CC1", "µM", "=", 32],
  ["Cc1c(-c2ccccc2Cl)c(=O)n(C23CC4CC(CC(C4)C2)C3)c2nc(NC3CC3)ncc12", "µM", "=", 265],
  ["NNC(=O)c1ccncc1 [ISONIAZID]", "µM", "=", 0.2]
]}

Cited source: ChEMBL document CHEMBL5055654
